system: Plasmodium falciparum, Indochina clone W2; experiment: microbe, parasite or virus in culture; conditions: Plasmodium falciparum, W2, 48 h
Provide the reported IC50 of each item.
Numbers only, in µM.

// solved cases for IC50 follow
Req: Quick check: IC50 on Plasmodium falciparum, Indochina clone W2, item O=c1[nH]c(=O)n([C@@H]2O[C@H](CO)[C@@H](O)[C@H]2O)cc1F [5-fluoro-uridine, reference compound] ?
Resp: 32

Req: Notebook: pull reported IC50 for Plasmodium falciparum, Indochina clone W2, entry O=c1[nH]cc(F)c(=O)[nH]1 [5-fluoro-uracil, reference compound]
Resp: 12

Req: Give IC50 (Plasmodium falciparum, Indochina clone W2) of the following compound: O=c1[nH]c(=O)n([C@H]2C[C@H](O)[C@@H](CO)O2)cc1F [5-fluoro-2'-deoxyuridine, reference compound]
Resp: 100

---
Req: For Plasmodium falciparum, Indochina clone W2, provide IC50 of O=C(O)c1[nH]c(=O)[nH]c(=O)c1F [5-fluoro-orotate] please.
Resp: 0.006

Origin of measurements: patent US6159953A
